# assayed.target: UniProt P0DTD1
# test.name: SARS-CoV-2 protease inhibition assay (SARS2 FRET protease assay)
# Type: biochemical
# reported.conditions: SARS-CoV-2 protease 25 nM, FRET, peptide substrate 1.3 μM, 30 minutes at 30° C., compounds 20 μM to 1.0 nM; read-out: IC50
Listed compounds paired with reported IC50
readout.kind: IC50 (nM)

1) CC(C)C[C@H](NC(=O)OC1(Cc2cccc(OCc3ccccc3)c2)CC1)C(=O)N[C@H](C=O)C[C@@H]1CCNC1=O :: 600
2) CC(C)C[C@H](NC(=O)OC(c1ccccc1)C1(c2cccc(Cl)c2)CCC1)C(=O)N[C@H](C=O)C[C@@H]1CCNC1=O (some centres unmarked) :: 710
3) CC(C)C[C@H](NC(=O)OCC1CCC(F)(F)CC1)C(=O)NC(C)(C=O)CC1CCNC1=O (some centres unmarked) :: 6790
4) CC(C)(c1cccc(Cl)c1)[C@@H](OC(=O)N[C@@H](CC1CCCCC1)C(=O)N[C@@H](C[C@@H]1CCNC1=O)C(=O)C(=O)NC1CC1)c1cccc(F)c1 :: 2320
5) CC1(C)CC(C[C@@H](C=O)NC(=O)[C@H](CC2CCCCC2)NC(=O)OC(Cc2cccc(Cl)c2)c2cccc(Cl)c2)C(=O)N1 (some centres unmarked) :: 92.2
6) CC(=O)N1CCC2(CC1)CC(CC(C=O)NC(=O)[C@H](Cc1cccc(F)c1)NC(=O)OCc1cccc(Cl)c1)C(=O)N2 (some centres unmarked) :: 300
7) CC(=O)N1CCC2(CC1)CC(CC(C=O)NC(=O)[C@H](CC(C)C)NC(=O)c1cc3ccccc3[nH]1)C(=O)N2 (some centres unmarked) :: 140
8) CC(C)C[C@H](NC(=O)OC(c1ccccc1)C(C)(C)c1cccc(Cl)c1)C(=O)NC(CC1CC(C)(C)NC1=O)C(=O)C(N)=O (some centres unmarked) :: 1850
9) CC1(C)CC(C[C@H](NC(=O)[C@H](CC2CCCCC2)NC(=O)OC(Cc2cccc(Cl)c2)c2cccc(Cl)c2)C(=O)C(=O)NC2CC2)C(=O)N1 (some centres unmarked) :: 1670
10) CC(C)C(=O)N1CCC2(CC1)CC(CC(NC(=O)[C@H](CC1CCCCC1)NC(=O)c1cc3ccccc3[nH]1)C(=O)C(N)=O)C(=O)N2 (some centres unmarked) :: 245

These data points were gathered from patent US20230159453A1.
